Provenance of the data: ChEMBL document CHEMBL5113513

# MEASURED_TARGET: Stromelysin-1 (Homo sapiens, UniProt P08254)
# Sequence (P08254 whole entry): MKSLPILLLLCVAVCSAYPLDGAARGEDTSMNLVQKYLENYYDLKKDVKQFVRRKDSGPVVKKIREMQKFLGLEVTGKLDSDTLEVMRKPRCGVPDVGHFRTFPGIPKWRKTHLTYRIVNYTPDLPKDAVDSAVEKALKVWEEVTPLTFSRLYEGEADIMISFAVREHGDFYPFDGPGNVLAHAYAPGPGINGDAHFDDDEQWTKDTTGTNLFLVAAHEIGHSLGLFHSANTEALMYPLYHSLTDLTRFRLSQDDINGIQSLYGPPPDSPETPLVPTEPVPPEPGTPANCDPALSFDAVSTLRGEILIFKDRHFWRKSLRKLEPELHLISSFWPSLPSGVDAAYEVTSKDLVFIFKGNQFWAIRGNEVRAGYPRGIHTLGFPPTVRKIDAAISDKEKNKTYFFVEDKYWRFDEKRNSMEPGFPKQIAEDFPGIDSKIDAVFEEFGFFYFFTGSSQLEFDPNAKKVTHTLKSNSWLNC
# METHOD_SUMMARY: Inhibition of human MMP-3 expressed in Escherichia coli BL21(DE3) using Mca-Pro-Leu-Gly-Leu-Dpa-Ala-Arg-NH2 as substrate preincubated for 30 mins followed by susbstrate addition by photon-counter spectrophotometer analysis
METRIC_NAME: Ki

compound_string=NC(=O)[C@@H](CCC(=O)O)NC(=O)[C@@H](CCC(=O)O)NC(=O)[C@@H](Cc1cc(-c2ccc(-c3cccc(Cl)c3)cc2)no1)CP(=O)(O)c1ccc(Br)cc1 metric_name=Ki experimental_value="40 nM"
compound_string=NC(=O)[C@H](CCC(=O)O)NC(=O)[C@@H](CCC(=O)O)NC(=O)CCc1ccc(-c2ccccc2)cc1 metric_name=Ki experimental_value="6700 nM"
compound_string=NC(=O)[C@H](CCC(=O)O)NC(=O)[C@@H](CCC(=O)O)NC(=O)CCc1cc(-c2ccc(-c3cccc(Cl)c3)cc2)no1 metric_name=Ki experimental_value="62 nM"

###

# MEASURED_TARGET: Collagenase 3 (Homo sapiens, UniProt P45452)
Recorded IC50 for the following compounds
METRIC_NAME: IC50 (nM)

compound=O=C(NO)C1(S(=O)(=O)c2ccc(-n3cc(-c4ccc(-c5ccccc5)cc4)nn3)cc2)CCOCC1 metric_name=IC50 readout_unit=nM readout_qualifier== experimental_value=0.9
compound=O=C(O)CS(=O)(=O)c1ccc(-c2ccccc2)cc1 metric_name=IC50 readout_unit=nM readout_qualifier== experimental_value=101000
compound=CN(C)c1ccc(-c2cn(-c3ccc(S(=O)(=O)C4(C(=O)NO)CCOCC4)cc3)nn2)cc1 metric_name=IC50 readout_unit=nM readout_qualifier== experimental_value=3.2
compound="O=C(NO)C(Cc1ccccc1)NS(=O)(=O)c1ccc(-c2cn(-c3ccc(-c4ccccc4)cc3)nn2)cc1 (stereo not drawn)" metric_name=IC50 readout_unit=nM readout_qualifier=< experimental_value=5
compound=COc1ccc(-c2cn(-c3ccc(S(=O)(=O)C4(C(=O)NO)CCOCC4)cc3)nn2)cc1 metric_name=IC50 readout_unit=nM readout_qualifier== experimental_value=1.4
compound=CNC(=O)[C@@H](NC(=O)[C@H](CC(C)C)NC(=O)[C@H](S)CCN1C(=O)N(C)C(C)(C)C1=O)C(C)(C)C metric_name=IC50 readout_unit=nM readout_qualifier== experimental_value=4
compound=C[C@H]1c2cccc(O)c2C(=O)C2=C(O)[C@]3(O)C(=O)C(C(N)=O)=C(O)[C@@H](N(C)C)[C@@H]3[C@@H](O)[C@@H]21 metric_name=IC50 readout_unit=nM readout_qualifier== experimental_value=20000
compound=O=C(CS(=O)(=O)c1ccc(-c2ccccc2)cc1)NO metric_name=IC50 readout_unit=nM readout_qualifier== experimental_value=9.8

###

# MEASURED_TARGET: UniProt P14780
# Sequence (P14780 whole entry): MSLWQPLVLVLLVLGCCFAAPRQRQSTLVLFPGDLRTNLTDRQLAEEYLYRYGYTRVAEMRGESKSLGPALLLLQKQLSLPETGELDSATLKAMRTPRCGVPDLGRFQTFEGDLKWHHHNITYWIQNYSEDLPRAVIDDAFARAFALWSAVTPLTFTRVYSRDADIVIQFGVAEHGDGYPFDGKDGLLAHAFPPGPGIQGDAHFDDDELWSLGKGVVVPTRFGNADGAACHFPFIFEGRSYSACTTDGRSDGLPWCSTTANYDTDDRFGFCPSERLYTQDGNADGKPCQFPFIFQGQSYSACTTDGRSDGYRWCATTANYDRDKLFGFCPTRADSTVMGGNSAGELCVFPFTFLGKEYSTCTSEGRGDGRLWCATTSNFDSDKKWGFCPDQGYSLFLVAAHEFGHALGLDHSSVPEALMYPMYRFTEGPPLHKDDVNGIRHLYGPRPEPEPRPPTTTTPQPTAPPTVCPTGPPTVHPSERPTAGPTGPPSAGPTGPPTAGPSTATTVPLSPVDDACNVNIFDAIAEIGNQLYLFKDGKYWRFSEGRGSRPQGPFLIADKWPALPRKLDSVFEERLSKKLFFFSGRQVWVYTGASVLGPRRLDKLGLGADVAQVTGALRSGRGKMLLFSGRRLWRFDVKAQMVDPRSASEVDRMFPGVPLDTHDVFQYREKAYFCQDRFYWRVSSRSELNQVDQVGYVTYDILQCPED
# METHOD_SUMMARY: Inhibition of recombinant human MMP-9 using peptide substrate by ELISA
METRIC_NAME: IC50

molecule=O=C(NCCCCCNS(=O)(=O)c1ccc(Oc2ccccc2)cc1)P(=O)(O)O measured_target="UniProt P14780" experimental_value="> 100 nM"
molecule=O=C(NCCCCCCNS(=O)(=O)c1ccc(Oc2ccccc2)cc1)P(=O)(O)O measured_target="UniProt P14780" experimental_value="> 100 nM"
molecule="NC1CCCCC1NC(=O)P(=O)(O)O (stereo not drawn)" measured_target="UniProt P14780" experimental_value="20 nM"
